Hi there, I'd appreciate the recorded koff for every entry that follows.
Target: T1, human PXR-GST (Invitrogen) (human) (UniProt O75469)
T1 sequence: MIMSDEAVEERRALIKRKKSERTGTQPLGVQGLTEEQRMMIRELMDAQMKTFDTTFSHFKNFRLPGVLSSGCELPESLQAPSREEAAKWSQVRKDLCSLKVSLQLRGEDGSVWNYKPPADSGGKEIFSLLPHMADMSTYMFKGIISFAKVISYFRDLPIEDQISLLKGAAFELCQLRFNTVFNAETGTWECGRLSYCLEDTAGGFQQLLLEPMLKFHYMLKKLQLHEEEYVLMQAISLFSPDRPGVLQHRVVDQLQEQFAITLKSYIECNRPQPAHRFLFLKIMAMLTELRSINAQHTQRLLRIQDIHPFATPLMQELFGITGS
Assay: SPR (Biacore T100), Adnectin series over human PXR-GST captured by anti-GST antibody
One number for each entry, in s⁻¹.

Consider the reported koff for these binders:
binder | unit-name | koff
Adnectin-4 (designed binder) MASTSGVSDVPRDLEVVAATPTSLLISWDAPAVTVHSYYITYQELQHHSVPQGFQVPGSKSTATISGLKPGVAYQIAVYAFTGPGLPPSDAPPIVIYYRTEGSGSHHHHHH | s⁻¹ | 0.000168
Adnectin-6 (designed binder) MGVSDVPRDLEVVAATPTSLLISWSRPKGSIKYYRITYGETGGNSPVQEFTVPNSQYTATISGLKPGVDYTITVYAVYGYPYQEPHYYPISINYRTEIDKPSQHHHHHH | s⁻¹ | 0.00126
Adnectin-1 (designed binder) MASTSGSTHYYKGTADLEVVAATPTSLLISWPPPYYVEGVTVFRITYGETGGNSPVQEFTVPYWTETATISGLKPGVDYTITVYAEMYPGSPWAGQVMDIQPISINYRTEGSGSHHHHHH | s⁻¹ | 0.00119

Now consider a different binder.
# lookup: koff of Adnectin-3 (designed binder) MASTSGVSDVPRDLEVVAATPTSLLISWDAPAVPVSKYVIYYWPGALISSMQAFKVPGSKSTATISGLKPGVLYSIVVDALTGDGQGSYVWDPITITYRTEGSGSHHHHHH
0.000378

Reference source: patent US11279751B2
